Hello, the source for this data is paper PMC9078399, in case you need it.

# SUBJECT_OF_TEST: σ1 receptor (Cavia porcellus)
# Construct: σ1 receptor, [^3H]-(+)-pentazocine, Guinea pig brain homogenate; from tissue; host or cells: Guinea pig brain homogenate
# Sequence (Q60492 whole entry): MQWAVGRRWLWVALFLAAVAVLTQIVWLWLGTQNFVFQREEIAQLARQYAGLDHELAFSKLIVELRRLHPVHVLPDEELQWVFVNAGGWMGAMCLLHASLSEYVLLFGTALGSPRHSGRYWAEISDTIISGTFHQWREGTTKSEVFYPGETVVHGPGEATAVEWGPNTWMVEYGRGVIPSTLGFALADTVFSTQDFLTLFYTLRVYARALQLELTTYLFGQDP
# PROTOCOL_NOTES: Radioligand binding at σ1 receptor ([3H]-(+)-pentazocine, NIMH PDSP)
# Set-up: species or system Guinea pig
# MEASUREMENT_CONTEXT: ratio of Ki σ2 to Ki σ1
We use 10 as the dividing line for Selectivity (Ki σ2/Ki σ1): on or above the line is yes (1), below is no (0).

| QUERY_SMILES | GROUP_LABEL |
| --- | --- |
| CN(CCOc1cc(COc2ccc(Cl)c(Cl)c2)on1)C1CCC1.Cl | yes (1) |
| Cl.c1ccc(OCc2cc(OCCN(C3CCC3)C3CCC3)no2)cc1 | no (0) |
| CN(CCOc1cc(COc2cc(Cl)cc(Cl)c2)on1)C1CCC1.Cl | no (0) |
| CN(CCOc1cc(COc2cccc(C(F)(F)F)c2)on1)C1CCC1.Cl | no (0) |

Please examine the following record next.
Input line: Please check the record CN(CCOc1cc(COc2ccc(F)cc2)on1)C1CCC1.Cl and state if its Selectivity (Ki σ2/Ki σ1) is at or above 10.
Output line: yes (1)
